System: HMLER-shEcad mammospheres
Assay: Mammosphere viability assay (TOX8)
Type: cell-based, human
Settings: TOX8, 120 h incubation
Experimental Endpoint: IC50 (µM)
Give the value, in units of µM, as a plain number.

Recorded IC50, per entry:
- Compound: "O=C([O-])c1ccccc1O.[Cu+].c1ccc(P(c2ccccc2)c2ccccc2)cc1.c1ccc(P(c2ccccc2)c2ccccc2)cc1 [compound 3, [Cu^I(salicylate)(PPh3)2]]"
  Reading: 13.6
- Compound: "COc1ccc2cc(C(C)C(=O)[O-])ccc2c1.[Cu+].c1ccc(P(c2ccccc2)c2ccccc2)cc1.c1ccc(P(c2ccccc2)c2ccccc2)cc1 [compound 2, [Cu^I(naproxen)(PPh3)2]]"
  Reading: 11.8

Problem: // map O=C([O-])Cc1ccccc1Nc1c(Cl)cccc1Cl.[Cu+].c1ccc(P(c2ccccc2)c2ccccc2)cc1.c1ccc(P(c2ccccc2)c2ccccc2)cc1 [compound 1, [Cu^I(diclofenac)(PPh3)2]] to recorded IC50 (system: HMLER-shEcad mammospheres)
Solution: 18.2
